Provide the reported ELISA fold over background of each item.
TARGET OR TEST SYSTEM: S1-Fc (SARS-CoV-2, UniProt P0DTC2 16-685)
ASSAY REMARKS: phage ELISA
One number for each entry, in fold over background.

| BINDER | ELISA fold over background, fold over background |
| --- | --- |
| 1-47 (antibody, V domains shown, also called variant 1-47) VH: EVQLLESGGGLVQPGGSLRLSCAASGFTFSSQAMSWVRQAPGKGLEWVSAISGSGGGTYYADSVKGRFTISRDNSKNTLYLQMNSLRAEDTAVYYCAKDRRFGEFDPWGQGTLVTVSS VL: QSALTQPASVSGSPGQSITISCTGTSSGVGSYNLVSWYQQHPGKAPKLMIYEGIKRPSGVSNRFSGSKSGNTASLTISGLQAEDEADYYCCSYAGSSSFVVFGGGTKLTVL | 1.2 |

In the following, a different binder is considered.
Problem: Find the measured ELISA fold over background of 1-42 (antibody, V domains shown, also called variant 1-42) VH: EVQLLESGGGLVQPGGSLRLSCAASGVTFSSYAMSWVRQAPGKGLEWVSAITGSGGSTYYADSVKGRFTISRDNSKNTLYLQMNSLRAEDTAVYYCAKHGSGTIFGVVIAKYYFDYWGQGTLVTVSS VL: QSALTQPASVSGSPGQSITISCTGTSSDVGRYNLVSWYQQHPGKAPKLMIYEGGKRPSGVSNRFSGSKSGNTASLTISGLQAEDEADYYCCSYASSSTLVFGGGTKLTVL and report it.
Solution: 1.4
